Just for reference, PubChem BioAssay is where these values come from.

assay: viability loss in pontine glioma line – cell-based, JHH-DIPG-1, MIPE4.0, CellTiter-Glo, qHTS, dose response (AID 1347062); conditions: JHH-DIPG-1 viability, CellTiter-Glo ATP luminescence;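 as to AC50: cells exposed to compound for two days before readout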
Inconclusive results are not listed. The source made the active and inactive calls. The limit is not given here; nearly all actives have AC50 up to about 27 µM.
Please reply with one of these outcomes: t (active), f (inactive)

{"molecule": "C#CCN[C@@H]1CCc2ccccc21", "assigned category": "f"}

// next entry
GET /call?item= CCOC(=O)C1=C[C@]2(CC)CCCN3CCc4c(n1c1ccccc41)[C@@H]32 returns the recorded outcome of this test.
t

---

assay: growth inhibition, MDA-MB-436, cell-based, BGB or cisplatin combos, synergistic combos for chromothripsis tumors (AID 1671458); settings: MDA-MB-436 breast carcinoma growth inhibition, drug combinations; at 0.5 µM; stronger effect = higher value;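 also: cells exposed for 96 hours; 0% = vehicle DMSO and 100% = killing by high DMSO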
Classify as follows. Reported inhibition greater than or equal to -10%: T. Reported inhibition below: F.

Examples from the recorded data:
{"mol smiles": "O=C(O)P(=O)(O)O", "assigned category": "F"}
{"mol smiles": "O=NN(CCCl)C(=O)NCCCl", "assigned category": "T"}
{"mol smiles": "Cc1ccnc2c1NC(=O)c1cccnc1N2C1CC1", "assigned category": "F"}

Is it the case that Nc1nc2c(ncn2COC(CO)CO)c(=O)[nH]1 has inhibition reaching or exceeding -10%?
T

Is it the case that Cc1nc2ccc(CN(C)c3ccc(C(=O)N[C@@H](CCC(=O)O)C(=O)O)s3)cc2c(=O)[nH]1 has inhibition reaching or exceeding -10%?
T

Is it the case that Nc1nc(=S)c2[nH]cnc2[nH]1 has inhibition reaching or exceeding -10%?
T

Is it the case that O=c1oc2c(O)c(O)cc3c(=O)oc4c(O)c(O)cc1c4c23 has inhibition reaching or exceeding -10%?
T

Is it the case that Nc1[nH]c(=O)ncc1F has inhibition reaching or exceeding -10%?
F

---

biological target: 6-phosphogluconate dehydrogenase, decarboxylating (Homo sapiens) (UniProt P52209); assay: inhibition of human phosphogluconate dehydrogenase – biochemical, recombinant enzyme, NADPH absorbance, primary screen (AID 1159550); conditions: recombinant 6PGD, NADPH absorbance 341 nm; at 10 µM; stronger effect = higher value
Sequence (P52209 whole entry, looked up): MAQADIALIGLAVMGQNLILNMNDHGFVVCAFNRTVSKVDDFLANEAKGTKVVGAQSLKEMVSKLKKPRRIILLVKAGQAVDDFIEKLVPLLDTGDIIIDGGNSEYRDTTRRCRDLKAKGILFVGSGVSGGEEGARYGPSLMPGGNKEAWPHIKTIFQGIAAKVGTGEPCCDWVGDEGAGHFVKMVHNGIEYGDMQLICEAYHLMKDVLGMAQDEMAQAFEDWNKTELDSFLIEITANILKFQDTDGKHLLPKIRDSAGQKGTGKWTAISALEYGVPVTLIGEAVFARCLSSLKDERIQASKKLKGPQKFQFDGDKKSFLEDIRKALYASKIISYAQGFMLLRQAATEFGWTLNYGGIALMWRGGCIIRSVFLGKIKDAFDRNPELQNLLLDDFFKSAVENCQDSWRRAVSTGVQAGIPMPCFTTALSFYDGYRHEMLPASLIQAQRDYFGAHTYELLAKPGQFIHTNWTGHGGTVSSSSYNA
The source made the active and inactive calls.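 Rule for the calls: active = at least 20% inhibition of 6-phosphogluconate dehydrogenase activity; inactive = the rest.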
measurement type: inhibition

Can you look up the measured inhibition of CO[C@@]12[C@H](COC(N)=O)C3=C(C(=O)C(C)=C(N)C3=O)N1C[C@@H]1N[C@@H]12 for me?
-2.77% (inactive)

Can you look up the measured inhibition of CCCCC(=O)O[C@]1(C(=O)CO)[C@@H](C)C[C@H]2[C@@H]3CCC4=CC(=O)C=C[C@]4(C)[C@@]3(F)[C@@H](O)C[C@@]21C for me?
-3.61% (inactive)

Can you look up the measured inhibition of CCCCCCCCCCCCCCCCOP(=O)([O-])OCC[N+](C)(C)C for me?
17% (inactive)

Can you look up the measured inhibition of CC[N+](CC)(CC)CCOc1cccc(OCC[N+](CC)(CC)CC)c1OCC[N+](CC)(CC)CC for me?
7.66% (inactive)

---

assay: growth inhibition of DIPG cells – cell-based, MIPE4.0 library, CellTiter-Glo luminescence, qHTS (AID 1347066); conditions: SU-DIPG-VI viability, CellTiter-Glo ATP luminescence;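 also: cells exposed to compound for 48 hours before readout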
Inconclusive results are not listed. Active and inactive are the calls of the source. Cut-off not given; nearly all actives show AC50 up to about 30 µM.
Please reply with one of these outcomes: active, inactive

Examples from the recorded data:
{"compound": "Cc1cnc(NC(=O)C2=C(O)c3ccccc3S(=O)(=O)N2C)s1", "assigned category": "inactive"}
{"compound": "COc1cc(NS(=O)(=O)c2ccc(N)cc2)nc(OC)n1", "assigned category": "inactive"}
{"compound": "COc1ccc2[nH]cc(CCNC(C)=O)c2c1", "assigned category": "inactive"}
{"compound": "Cc1cn([C@H]2C=C[C@@H](CO)O2)c(=O)[nH]c1=O", "assigned category": "inactive"}
{"compound": "Nc1ccc(S(=O)(=O)Nc2ccccn2)cc1", "assigned category": "inactive"}
{"compound": "CC(C)(C#N)c1cc(Cn2cncn2)cc(C(C)(C)C#N)c1", "assigned category": "inactive"}
{"compound": "Cc1cnc(C(=O)O)c[n+]1[O-]", "assigned category": "inactive"}
{"compound": "C[C@H]1O[C@@H](n2cc(F)c(=O)[nH]c2=O)[C@H](O)[C@@H]1O", "assigned category": "inactive"}

GET /call?item= O=c1c(-c2ccc(O)cc2)coc2cc(O)cc(O)c12 returns the recorded outcome of this test.
inactive

GET /call?item= CC1(C)O[C@H]2CC(=O)OC[C@]23[C@H]2CC[C@@]4(C)[C@H](c5ccoc5)OC(=O)[C@H]5O[C@]54[C@]2(C)C(=O)C[C@@H]13 returns the recorded outcome of this test.
inactive

GET /call?item= CC1=C(C(=O)O)N2C(=O)[C@@H](NC(=O)[C@H](N)C3=CCC=CC3)[C@H]2SC1 returns the recorded outcome of this test.
inactive

GET /call?item= CC1(C)NC(=O)N(c2ccc([N+](=O)[O-])c(C(F)(F)F)c2)C1=O returns the recorded outcome of this test.
inactive

GET /call?item= Cc1onc(-c2ccccc2)c1C(=O)N[C@@H]1C(=O)N2[C@@H]1SC(C)(C)[C@@H]2C(=O)O returns the recorded outcome of this test.
inactive

---

system: R275C/Slo1WT/beta2; test: BK channel mutant inhibitors and activators – cell-based, U2OS BacMam, thallium flux, beta subunits, selectivity assay, profiling panel (AID 1259406); settings: U2OS BacMam BK variants, at 30 µM;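 also: initial slope of Thallos dye fluorescence rise after thallium is added; log ratio against the mean of 0.3% DMSO vehicle wells on the same plate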
Active and inactive are the calls of the source.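 The calls were made as follows: active = thallium flux through the channel raised or lowered by more than 3 SD from vehicle-only wells, actives on both sides; inactive = the rest.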
Recorded log fold change Tl+ flux, one value per entry.

Some molecules with known log fold change Tl+ flux results, for comparison:
{"molecule": "COc1ccc(C(=O)NCc2ccc(OCCN(C)C)cc2)cc1OC", "log fold change Tl+ flux": "0.00939 (inactive)"}
{"molecule": "C[C@H](NC(CCc1ccccc1)C(=O)O)C(=O)N1CCC[C@H]1C(=O)O (stereo partly specified)", "log fold change Tl+ flux": "0.0874 (active)"}

Can you look up the measured log fold change Tl+ flux of Cc1cnc(NC(=O)C2=C(O)c3ccccc3S(=O)(=O)N2C)s1 for me?
0.0334 (inactive)

Can you look up the measured log fold change Tl+ flux of COc1ccc(CN2CCN(C(c3ccc(F)cc3)c3ccc(F)cc3)CC2)c(OC)c1OC for me?
-0.00919 (inactive)

Can you look up the measured log fold change Tl+ flux of COc1cc(C)nc(-n2nc(C)cc2OC)n1 for me?
-0.00369 (inactive)

Can you look up the measured log fold change Tl+ flux of CCN1CCC[C@H]1CNC(=O)c1cc(S(N)(=O)=O)ccc1OC for me?
-0.0273 (inactive)

---

test: EMT-state selective cytotoxicity in co-culture – imaging, PC-3E GFP, TEM4-18 mCherry, primary screen (AID 1345086); settings: PC-3E GFP / TEM4-18 mCherry co-culture, imaging cell counts; at 1 µM; actives lie on both sides; counts scaled to control wells, 1 = unselective;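 also: normalised mesenchymal count divided by normalised epithelial count so high means epithelial killing; cells exposed to compound for 72 h before imaging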
Recorded red/green cell ratio (normalised), one value per entry.
Respond using a number only.

{"molecule": "CC(=O)Nc1ccc(O)cc1", "red/green cell ratio (normalised)": 1.05}
{"molecule": "CCC(=O)c1c(O)cc(O)cc1O", "red/green cell ratio (normalised)": 0.9}
{"molecule": "C[C@](N)(Cc1ccc(O)cc1)C(=O)O", "red/green cell ratio (normalised)": 0.89}
{"molecule": "O=C(OCc1ccccc1)c1ccccc1", "red/green cell ratio (normalised)": 0.83}
{"molecule": "C1CCC(C(CC2CCCCN2)C2CCCCC2)CC1 (centres undefined)", "red/green cell ratio (normalised)": 0.98}
{"molecule": "CNNCc1ccc(C(=O)NC(C)C)cc1", "red/green cell ratio (normalised)": 1.09}

Can you look up the measured red/green cell ratio (normalised) of C[n+]1c2cc(N)ccc2cc2ccc(N)cc21 (tested in a mixture with another compound) for me?
0.5

Can you look up the measured red/green cell ratio (normalised) of Cc1c[nH]c2ccccc12 for me?
0.99

Can you look up the measured red/green cell ratio (normalised) of Cc1cccc(C)c1OCC(C)N (centres undefined) for me?
1.08

Can you look up the measured red/green cell ratio (normalised) of Cn1c(=O)c2c(ncn2C)n(C)c1=O for me?
0.97

Can you look up the measured red/green cell ratio (normalised) of CC(C(=O)O)c1ccc2c(c1)[nH]c1ccc(Cl)cc12 (centres undefined) for me?
1.13

Can you look up the measured red/green cell ratio (normalised) of CO/N=C1\CN(c2nc3c(cc2F)c(=O)c(C(=O)O)cn3C2CC2)CC1CN (centres undefined) for me?
0.94

---

test: blockers of cytochrome c efflux from mitochondria – biochemical, purified mitochondria (AID 1603); conditions: stronger effect = lower value;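 also: mouse liver mitochondria challenged with calcium chloride; signal normalized to the plate average as 100%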
Sorting guide: entries reporting cytochrome c release ratio beneath 1 go in the yes pile, the rest go in the no pile.

Strictly below 1 in cytochrome c release ratio? O=C1NCC2(CCN(CCc3ccccc3)CC2)O1
no

Strictly below 1 in cytochrome c release ratio? COc1ccc(C2C(=O)c3ccccc3C2=O)cc1
no

Strictly below 1 in cytochrome c release ratio? O=C(O)c1ccccc1O
yes

Strictly below 1 in cytochrome c release ratio? CCN(CC)CCNC(=O)c1cc(Cl)c(N)cc1OC
no

Strictly below 1 in cytochrome c release ratio? O=C(O)c1ccccc1C(=O)Nc1ccc(S(=O)(=O)Nc2nccs2)cc1
yes

Strictly below 1 in cytochrome c release ratio? Nc1ccc(N=Nc2ccccc2)c(N)n1
yes

Strictly below 1 in cytochrome c release ratio? Clc1ccccc1C(c1ccccc1)(c1ccccc1)n1ccnc1
no

Strictly below 1 in cytochrome c release ratio? Nc1nc2c(c(=O)[nH]1)N(C=O)C(CNc1ccc(C(=O)N[C@@H](CCC(=O)O)C(=O)O)cc1)CN2 (some centres not stated)
no

Strictly below 1 in cytochrome c release ratio? CC(C)NCC(O)c1ccc2ccccc2c1 (configuration not stated)
yes

Strictly below 1 in cytochrome c release ratio? Oc1cccc(O)c1
yes

Strictly below 1 in cytochrome c release ratio? CC1=C(C(=O)O)N2C(=O)[C@@H](NC(=O)[C@H](N)c3ccc(O)cc3)[C@H]2SC1
yes

Strictly below 1 in cytochrome c release ratio? CCN(CC)CCOC(=O)C(c1ccccc1)C1CCCCC1 (configuration not stated)
no
